Values from ChEMBL document CHEMBL3885861

- Species on record: Rattus norvegicus
- testProtocol: Open TG-GATES - Regimen: Single
- Type: toxicity, organism-based, Sprague-Dawley
- Set-up: regimen Single, gender Male, age 6 weeks
- assayContext: in vivo, po, 0 mg/kg, 9 h, tissue Plasma, route gavage, dose level Control
measurementLabel: Ca (mg/dL)
Numbers only, in mg/dL.

Here's what some known entries look like.
{"compound": "O=C1CN(/N=C/c2ccc(-c3ccc([N+](=O)[O-])cc3)o2)C(O)=N1", "Ca / mg/dL": 10.1}
{"compound": "Cc1cccc(Nc2cc(Cl)nc(SCC(=O)O)n2)c1C", "Ca / mg/dL": 10.6}
{"compound": "COc1ccc(O)c(C(C)(C)C)c1.COc1ccc(O)cc1C(C)(C)C [BUTYLATED HYDROXYANISOLE]", "Ca / mg/dL": 10.9}
{"compound": "CS(=O)(=O)Nc1ccc([N+](=O)[O-])cc1Oc1ccccc1 [NIMESULIDE]", "Ca / mg/dL": 10.6}

Attention now turns to another entry.
Just so you know, measured Ca for S=C=Nc1cccc2ccccc12 [1-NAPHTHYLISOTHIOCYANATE] came out at 10.7
